Below, each entry is listed with its recorded Fluorescence Intensity Geomean (normalized to background).
molecular target: T1, human CD1c expressed on HEK-293 cells (human, UniProt P29017 18-333; P61769 21-119); test: flow cytometry, HEK-293 cells, 10 µg/ml antibody
T1 construct: also called HEK - CD1c
Expressed in fold over background, but write only the number.

Answered cases to consult:
BINDER	VALUE MEASURED
116 (VR12117) (antibody, V domains shown, also called OX116) VH: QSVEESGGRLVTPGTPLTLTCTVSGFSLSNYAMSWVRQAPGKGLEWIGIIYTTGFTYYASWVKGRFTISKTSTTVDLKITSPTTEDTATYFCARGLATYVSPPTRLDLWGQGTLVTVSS VL: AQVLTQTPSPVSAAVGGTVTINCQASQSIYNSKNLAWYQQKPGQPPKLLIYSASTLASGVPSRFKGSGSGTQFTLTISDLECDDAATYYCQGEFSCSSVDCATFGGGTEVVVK	1.1
77A (VR11851) (antibody, V domains shown, also called OX77a; antibody 77a) VH: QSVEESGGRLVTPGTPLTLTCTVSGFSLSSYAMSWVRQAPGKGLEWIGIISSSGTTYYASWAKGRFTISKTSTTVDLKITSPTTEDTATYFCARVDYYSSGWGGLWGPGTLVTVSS VL: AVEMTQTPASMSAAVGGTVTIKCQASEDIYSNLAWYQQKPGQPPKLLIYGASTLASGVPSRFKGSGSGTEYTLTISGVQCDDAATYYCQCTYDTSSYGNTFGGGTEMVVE	0.9
110 (VR12112) (antibody, V domains shown, also called OX110; antibody 110) VH: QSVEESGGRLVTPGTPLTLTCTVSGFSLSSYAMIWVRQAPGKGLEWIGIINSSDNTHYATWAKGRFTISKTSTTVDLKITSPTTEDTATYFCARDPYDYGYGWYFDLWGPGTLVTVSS VL: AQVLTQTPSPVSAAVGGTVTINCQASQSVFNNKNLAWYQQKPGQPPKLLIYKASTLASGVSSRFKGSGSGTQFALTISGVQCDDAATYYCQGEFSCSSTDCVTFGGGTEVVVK	1

Look at this binder and give its reported Fluorescence Intensity Geomean (normalized to background). 111 (VR12113) (antibody, V domains shown, also called OX111) VH: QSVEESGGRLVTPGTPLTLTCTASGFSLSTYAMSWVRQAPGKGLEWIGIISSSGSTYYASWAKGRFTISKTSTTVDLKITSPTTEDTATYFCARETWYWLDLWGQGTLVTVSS VL: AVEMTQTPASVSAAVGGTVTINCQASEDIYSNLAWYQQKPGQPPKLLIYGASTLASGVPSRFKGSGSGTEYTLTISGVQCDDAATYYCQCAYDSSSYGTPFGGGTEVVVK
1
